- SYSTEM NAME: WT-nsp13 (Severe acute respiratory syndrome coronavirus)
OBSERVABLE: pIC50
One number for each entry, as −log10 of the molar value.

The compound listed as C=CCn1c(S)nnc1CSc1ccccc1[N+](=O)[O-] shows pIC50 equal to 5.22

###

- SYSTEM NAME: SARS-CoV nsp13 helicase (Severe acute respiratory syndrome coronavirus)
- MEASUREMENT PROTOCOL: biochemical
- STATED CONDITIONS: IC50 SARS-CoV RNA (nsp13 unwinding)
OBSERVABLE: IC50 (µM)
Numbers only, in µM.

The compound listed as C=CCn1c(S)nnc1CSc1ccccc1[N+](=O)[O-] shows IC50 equal to 5.6
